Each recorded value in this set is attributed to patent US6545152B1.

test system: HIV-1 strain A17 variant (Y181C plus K103N); assay: microbe, parasite or virus in culture; assay type: cell-based; settings: Human immunodeficiency virus 1, read-out: IC50 A17 (second column; A17 variant)
Task for the reader: assign each of the following molecules its reported IC50.
Field format: number, assumed µM, no unit text.

Query :: Recorded IC50 for CC(NC(=S)Nc1ccc(Cl)cn1)C1CCCCC1 (stereo not shown) [PHI-510^R] , please?
Result :: 8.2

Query :: Please do the same for C[C@@H](NC(=S)Nc1ccc(Br)cn1)c1ccccc1 [PHI-511^R] as well.
Result :: 2.7

Query :: Please do the same for C[C@@H](NC(=S)Nc1nccs1)C1CCCCC1 [PHI-513^R] as well.
Result :: 5.8

Query :: Please do the same for C[C@@H](NC(=S)Nc1ccc(Cl)cn1)c1ccccc1 [PHI-512^R] as well.
Result :: 10.2
